Data credit: PubChem BioAssay (NCI)

// values below are reported TGI
- Tested on: SK-MEL-5 melanoma
- test-name: NCI tumour cell line growth inhibition, 48 h
test-readout: TGI (µM)

{"columns": ["molecule", "study-target", "value-prefix", "val"],
 "data": [
  ["O=S(=O)(O)c1ccc2c(N=Nc3ccccc3)c(O)ccc2c1", "SK-MEL-5 melanoma", ">", 100],
  ["C=CC1(c2ccc3ccccc3c2)OCC(CC)O1 (stereo not given)", "SK-MEL-5 melanoma", ">", 100],
  ["Oc1ccccc1/C=N\\NC(=S)N/N=C/c1ccccc1O", "SK-MEL-5 melanoma", "=", 8.53],
  ["CCCCC1(O)CC2CC1C(C)C2(C)C (stereo not given)", "SK-MEL-5 melanoma", ">", 100],
  ["CC[PH+](CC)CC.CC[PH+](CC)CC.[Au]", "SK-MEL-5 melanoma", "=", 17.5],
  ["O=CN1CCC23CC(O)CCC2C1Cc1cc(Oc2nnnn2-c2ccccc2)cc(O)c13 (stereo not given)", "SK-MEL-5 melanoma", ">", 100],
  ["COc1cc2c(c(OC)c1OC)-c1c(c3ccc([N+](=O)[O-])cc3c(=O)n1CCCN)C2=O", "SK-MEL-5 melanoma", "=", 15.8],
  ["CC(=O)N[C@@H](Cc1ccc(OP(=O)(O)O)cc1)C(=O)N[C@H]1CCC(=O)N2CCC[C@@H](C(=O)NCc3ccccc3)N2C1=O", "SK-MEL-5 melanoma", ">", 25],
  ["O=C(c1ccccc1)c1nc2ccc(C(F)(F)F)cc2nc1N1CCN(c2ccccc2)CC1", "SK-MEL-5 melanoma", "=", 32.7],
  ["COc1cc(C2c3cc4c(cc3OC(NCCO)C2C)OCO4)cc(OC)c1O (stereo not given)", "SK-MEL-5 melanoma", "=", 56.5]
]}

---

- Tested on: MALME-3M melanoma
- test-name: NCI tumour cell line growth inhibition, 48 h
test-readout: GI50

{"columns": ["molecule", "test-readout", "val"],
 "data": [
  ["Cc1ccc(OCCOCCOCCOCCOCCOc2ccc(C)n(O)c2=S)c(=S)n1O", "GI50", "109 nM"],
  ["Cc1cccc(Cl)c1NC(=O)c1cnc(Nc2cc(N3CCOCC3)cc(S(C)(=O)=O)c2)s1", "GI50", "> 4160 nM"],
  ["CC(C)C(=O)c1c(C(F)(F)F)n([O-])c2ccccc2[n+]1=O", "GI50", "654 nM"],
  ["CN(C)CCS(=O)(=O)Nc1cc(-c2ccc3ncc(C#N)c(Nc4ccc(F)c(Cl)c4)c3c2)cnc1Cl", "GI50", "78.8 nM"],
  ["O=C1CC(N2C(=O)/C(=C/C(Cl)=C\\c3ccc([N+](=O)[O-])cc3)SC2=S)C(=O)N1c1ccc(O)cc1 (stereo not given)", "GI50", "2310 nM"],
  ["COc1ccc(-c2cn(-c3cc(OC)c(OC)c(OC)c3)c(=O)[nH]2)cc1OC", "GI50", "> 100000 nM"],
  ["C=C1C(=O)O[C@H]2[C@H]1CC/C(CNC(=O)/C=C/c1ccccc1F)=C\\CC[C@@]1(C)O[C@@H]21", "GI50", "1540 nM"],
  ["NC(N)=Nc1ccc(/C=C2\\C=Cc3ccccc32)cc1", "GI50", "4410 nM"],
  ["CN(C)c1ccccc1[CH2][Ga]([Cl])[CH2]c1ccccc1N(C)C", "GI50", "1750 nM"],
  ["Cn1c(=O)c(Oc2ccc(F)cc2F)cc2cnc(NC3CCOCC3)nc21", "GI50", "> 25000 nM"]
]}
